Where do the numbers come from? From ChEMBL document CHEMBL1153346.

Parameter: selectivity ratio. Scope: all listed entries.
Experiment: Selectivity index, ratio of IC50 for rat L6 cells to IC50 for Trypanosoma brucei rhodesiense STIB900 trypomastigotes
Assay type: toxicity, cell-based
Conditions: read-out: Ratio IC50

| Smiles Str | Inequality Sign | selectivity ratio |
| --- | --- | --- |
| Nc1cc(C2=NCCN2)ccc1OCCCOc1ccc(C2=NCCN2)cc1N | > | 205 |
| CC(C)NC(=N)c1cccc(OCCCOc2cccc(C(=N)NC(C)C)c2)c1 | > | 337 |
| Cl.Cl.N=C(N)c1ccc(OCCCOc2ccc(C(=N)N)cc2N)c(N)c1 | = | 440 |
| CC(C)NC(=N)c1ccc(OCCCCCOc2ccc(C(=N)NC(C)C)c(F)c2)cc1F | = | 506 |
| c1cc(OCCCOc2cccc(C3=NCCN3)c2)cc(C2=NCCN2)c1 | = | 10 |
| CC(=N)Nc1ccc(OCCCCCOc2ccc(NC(C)=N)cc2)cc1 | > | 66 |
| c1cc(OCCCCCOc2cccc(C3=NCCN3)c2)cc(C2=NCCN2)c1 | = | 67 |
| CCOC(=O)c1cc(C(=N)NC(C)C)ccc1OCCCCCOc1ccc(C(=N)NC(C)C)cc1C(=O)OCC.Cl.Cl | > | 2740 |
